Origin of values: paper PMC9250534

Please go through the items and note down their fraction fluorescent probe displaced, Screen.
biological target: MDM2 (Homo sapiens, UniProt Q00987); assay: MDM2 binding screen: displacement of fluorescent p53 peptide probe FP53 (fluorescence polarization); conditions: Acid 91; initial screen; crude macrocycle reactions
Sequence (Q00987 whole entry): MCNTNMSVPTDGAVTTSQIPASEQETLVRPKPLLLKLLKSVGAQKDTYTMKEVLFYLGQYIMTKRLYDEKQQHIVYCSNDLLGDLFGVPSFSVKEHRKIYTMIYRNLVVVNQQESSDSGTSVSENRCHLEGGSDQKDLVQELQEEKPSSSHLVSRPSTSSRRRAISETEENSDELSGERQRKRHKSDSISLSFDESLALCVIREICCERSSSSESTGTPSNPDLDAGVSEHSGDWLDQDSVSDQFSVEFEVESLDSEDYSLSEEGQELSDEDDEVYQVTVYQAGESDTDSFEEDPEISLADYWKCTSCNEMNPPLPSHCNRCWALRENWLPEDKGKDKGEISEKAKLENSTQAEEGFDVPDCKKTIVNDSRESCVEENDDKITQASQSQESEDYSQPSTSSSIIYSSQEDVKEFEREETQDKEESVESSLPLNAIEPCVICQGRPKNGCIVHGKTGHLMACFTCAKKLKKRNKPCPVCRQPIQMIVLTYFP
Numbered stars: 1 amine (or outer) side, 2 acyl side, 3 side chain; on linkers, the order of the positions; unused ones are H or OH. Bridge positions count the residues as written; N and C are the ends. Square brackets hold non-standard residues; d marks the D form. Peptide text beside a SMILES is read from it. * marks the point of attachment. Cysteamide = C(CS[*:3])N[*:1]; X1 = O=C(/C=C/c1ccccc1)*; Api = NC1(C(=O)O)CCNCC1; Dap = NC[C@H](N)C(=O)O; Mpa = O=C(O)CCS
Numbers only.

Known fraction fluorescent probe displaced, Screen results, listed for orientation:
MOLECULE: O=C(C=Cc1ccccc1)NC1CC2C(=O)NC(Cc3ccccc3)C(=O)NCCC(=O)NCCSSCCC(=O)N2C1 (centres unmarked) [X D5 F B2 Acid 91]
EXPERIMENTAL VALUE: 0.0563

MOLECULE: O=C1CCSSCCNC(=O)[C@@H]2CCCN2C(=O)[C@H](Cc2c[nH]c3ccccc23)NC(=O)C2(CCN(C(=O)/C=C/c3ccccc3)CC2)N1 [X D6 W B1 Acid 91] ([Mpa][Api](X1)WP-Cysteamide; disulfide 1-C)
EXPERIMENTAL VALUE: 0.08

MOLECULE: O=C(C=Cc1ccccc1)NC1CC2C(=O)NC(Cc3c[nH]c4ccccc34)C(=O)NCCSSCCC(=O)NCc3cccc(c3)C(=O)N2C1 (centres unmarked) [X B5 D5 W Acid 91]
EXPERIMENTAL VALUE: -0.13

MOLECULE: O=C(C=Cc1ccccc1)NC1CC2C(=O)NC(Cc3ccccc3)C(=O)NCCSSCCC(=O)NCCC(=O)N2C1 (centres unmarked) [X B2 D5 F Acid 91]
EXPERIMENTAL VALUE: -0.17

MOLECULE: O=C1CCNC(=O)[C@H](Cc2ccccc2)NC(=O)C2(CCN(C(=O)/C=C/c3ccccc3)CC2)NC(=O)CCSSCCN1 [X D6 F B2 Acid 91]
EXPERIMENTAL VALUE: 0.14

MOLECULE: O=C1CCNC(=O)C2(CCN(C(=O)/C=C/c3ccccc3)CC2)NC(=O)CCSSCCNC(=O)[C@H](Cc2c[nH]c3ccccc23)N1 [X D6 B2 W Acid 91]
EXPERIMENTAL VALUE: 0.19

Parameter requested: fraction fluorescent probe displaced, Screen. Apply to each item below.
1. O=C(C=Cc1ccccc1)NC1CC2C(=O)NCCSSCCC(=O)N3CCCC(C3)C(=O)NC(Cc3c[nH]c4ccccc34)C(=O)N2C1 (centres unmarked) [X B4 W D5 Acid 91]
2. O=C1NCCSSCCC(=O)N2CCC[C@H]2C(=O)NC2(CCN(C(=O)/C=C/c3ccccc3)CC2)C(=O)N[C@H]1Cc1ccccc1 [X B1 D6 F Acid 91] ([Mpa]P[Api](X1)F-Cysteamide; disulfide 1-C)
3. O=C(/C=C/c1ccccc1)NC[C@@H]1NC(=O)CCSSCCNC(=O)[C@H](Cc2ccccc2)NC(=O)[C@@H]2CCCN2C1=O [X D3 B1 F Acid 91] ([Mpa][Dap](X1)PF-Cysteamide; disulfide 1-C)
4. O=C(/C=C/c1ccccc1)NC[C@@H]1NC(=O)[C@H](Cc2ccccc2)NC(=O)CCSSCCNC(=O)[C@H]2CCCN(C2)C1=O [X F D3 B4 Acid 91]
5. O=C(/C=C/c1ccccc1)NC[C@@H]1NC(=O)[C@H](Cc2c[nH]c3ccccc23)NC(=O)[C@H]2CCCN(C2)C(=O)CCSSCCNC1=O [X B4 W D3 Acid 91]

**Result**
1. 0.0563
2. -0.10
3. 0.00268
4. 0.11
5. 0.16
